This collection of values is drawn from patent US10392404B2.

STUDY SYSTEM: b-Raf (V600E) (Homo sapiens, UniProt P15056, V600E)
Sequence (P15056 whole entry V600E): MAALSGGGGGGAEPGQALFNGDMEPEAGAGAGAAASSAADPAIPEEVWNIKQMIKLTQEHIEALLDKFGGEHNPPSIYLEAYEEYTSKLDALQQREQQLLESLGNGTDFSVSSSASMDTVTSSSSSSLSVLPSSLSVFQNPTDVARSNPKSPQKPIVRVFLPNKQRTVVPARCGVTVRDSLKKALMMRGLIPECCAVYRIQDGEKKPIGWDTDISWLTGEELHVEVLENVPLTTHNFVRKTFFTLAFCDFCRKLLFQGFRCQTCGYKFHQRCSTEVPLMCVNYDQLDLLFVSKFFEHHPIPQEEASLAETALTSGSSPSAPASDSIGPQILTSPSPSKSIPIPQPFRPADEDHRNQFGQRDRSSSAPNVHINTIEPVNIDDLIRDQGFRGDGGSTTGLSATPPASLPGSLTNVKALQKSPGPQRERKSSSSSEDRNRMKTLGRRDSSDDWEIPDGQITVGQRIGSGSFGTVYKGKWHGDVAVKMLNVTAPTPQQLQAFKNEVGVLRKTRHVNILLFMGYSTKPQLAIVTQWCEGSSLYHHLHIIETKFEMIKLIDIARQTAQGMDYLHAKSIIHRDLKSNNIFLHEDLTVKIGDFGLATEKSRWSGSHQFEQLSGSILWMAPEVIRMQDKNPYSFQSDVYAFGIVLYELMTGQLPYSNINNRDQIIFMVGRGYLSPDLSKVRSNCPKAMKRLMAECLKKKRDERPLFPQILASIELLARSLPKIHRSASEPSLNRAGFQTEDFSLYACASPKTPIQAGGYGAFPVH
TEST: In vitro Raf activity determination (Alpha Screen, biotinylated kinase-dead MEK1 substrate), B-Raf
EXPERIMENTAL SETUP: b-Raf (V600E) approximately 4 pM; ATP 10 μM; pre-incubation 60 minutes; reaction 3 hours at room temperature
REPORTED ENDPOINT: IC50 (nM)

1. Cc1ncc(NC(=O)c2ccnc(C(F)F)c2)cc1-c1cnc(NC2CCOCC2)c(C#N)c1; 4.18
2. Cc1ccc(NC(=O)c2cc(C3CC3)nn2C)cc1-c1cnc(N(C)C)c(C#N)c1; 35.6
3. Cc1ncc(NC(=O)c2cc(C(C)(C)C#N)ccn2)cc1-c1cnc(N2CCOCC2)c(C#N)c1; 2.62
4. Cc1ncc(NC(=O)c2ccnc(C(C)(C)F)c2)cc1-c1cnc(N2CC(C)(O)C2)c(C#N)c1; 7.91
5. Cc1ncc(NC(=O)c2ccnc(C(C)(C)C#N)c2)cc1-c1cnc(N2CCS(=O)(=O)CC2)c(C#N)c1; 11.6
6. COCCNc1ncc(-c2cc(NC(=O)c3ccnc(C(C)(C)C#N)c3)cnc2C)cc1C#N; 13.4
7. Cc1ncc(NC(=O)c2ccnc(C(C)(C)C#N)c2)cc1-c1cnc(N2CCCC2)c(C#N)c1; 8.66
8. Cc1ncc(NC(=O)c2ccnc(C(C)(C)C#N)c2)cc1-c1cnc(NC2CC2)c(C#N)c1; 10.8

---

STUDY SYSTEM: C-RAF (Homo sapiens, UniProt P04049, Y340E/Y341E)
Construct: His tag (implied by nickel chromatography) (cleaved yes); StrepII tag (cleaved yes); MEK1 substrate from E. coli
Sequence (P04049 whole entry Y340E/Y341E): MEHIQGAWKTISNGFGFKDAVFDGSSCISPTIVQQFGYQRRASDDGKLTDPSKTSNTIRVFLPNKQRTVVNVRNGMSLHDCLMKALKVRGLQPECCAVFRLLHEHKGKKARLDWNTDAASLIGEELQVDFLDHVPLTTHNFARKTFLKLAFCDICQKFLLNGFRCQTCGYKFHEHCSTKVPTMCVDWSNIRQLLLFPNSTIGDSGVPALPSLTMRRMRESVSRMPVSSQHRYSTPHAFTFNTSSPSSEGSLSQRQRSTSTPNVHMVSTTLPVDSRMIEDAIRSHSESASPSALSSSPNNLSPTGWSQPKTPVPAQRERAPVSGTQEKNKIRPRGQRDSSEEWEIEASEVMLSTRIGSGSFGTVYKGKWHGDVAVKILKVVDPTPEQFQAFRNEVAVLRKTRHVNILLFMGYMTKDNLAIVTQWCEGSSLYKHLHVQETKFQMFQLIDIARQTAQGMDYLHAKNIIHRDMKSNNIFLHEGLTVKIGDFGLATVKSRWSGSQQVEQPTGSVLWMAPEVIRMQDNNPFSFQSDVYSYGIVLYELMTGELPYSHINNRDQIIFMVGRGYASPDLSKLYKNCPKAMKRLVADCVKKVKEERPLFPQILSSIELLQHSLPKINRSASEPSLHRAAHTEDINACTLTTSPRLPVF
Sequence (P63104 whole entry partner): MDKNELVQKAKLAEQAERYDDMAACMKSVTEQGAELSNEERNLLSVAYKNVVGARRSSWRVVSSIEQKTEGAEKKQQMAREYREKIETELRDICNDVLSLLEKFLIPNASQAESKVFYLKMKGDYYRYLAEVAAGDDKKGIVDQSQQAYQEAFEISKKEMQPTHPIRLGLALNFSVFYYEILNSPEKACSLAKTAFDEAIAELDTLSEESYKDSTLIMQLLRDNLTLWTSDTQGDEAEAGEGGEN
TEST: In vitro Raf activity determination (Alpha Screen, biotinylated kinase-dead MEK1 substrate), C-Raf
EXPERIMENTAL SETUP: c-Raf approximately 4 nM; ATP 1 μM; pre-incubation 60 minutes; reaction 1 hour at room temperature
REPORTED ENDPOINT: log10 of IC50 (log10 of the value in nM)

1) Cc1ccn(-c2ncc(-c3cc(NC(=O)c4ccnc(C(C)(C)C#N)c4)cnc3C)cc2C#N)n1 [Example 83]; 0.69
2) Cc1ncc(NC(=O)c2ccnc(C(C)(C)C#N)c2)cc1-c1cnc(OC(C)C)c(C#N)c1 [Example 96]; 0.55
3) Cc1ncc(NC(=O)c2ccnc(C(C)(C)C#N)c2)cc1-c1cnc(N2C[C@H]3CC[C@@H](C2)O3)c(C#N)c1 [Example 88]; -0.21
4) Cc1ncc(NC(=O)c2cnnc(C3CC3)c2)cc1-c1cnc(NC2CCOCC2)c(C#N)c1 [Example 200]; 0.38
5) Cc1ccc(NC(=O)c2ccnc(C(C)(C)C#N)c2)cc1-c1cnc(-n2ccc(=O)cc2)c(C#N)c1 [Example 120]; 0.84
6) Cc1ncc(NC(=O)c2cc(C(C)(C)O)ccn2)cc1-c1cnc(N2CCOCC2)c(C#N)c1 [Example 234]; 0.35
7) Cc1ncc(NC(=O)c2cccc(C(F)(F)F)n2)cc1-c1cnc(C2CCOCC2)c(C#N)c1 [Example 141]; 0.71
8) Cc1ncc(NC(=O)c2ccnc(C(C)(C)C#N)c2)cc1-c1cnc(N2CCOC(C)(C)C2)c(C#N)c1 [Example 89]; 0.01
9) COCCNc1ncc(-c2cc(NC(=O)c3cnnc(C(F)(F)F)c3)ccc2C)cc1C#N [Example 179]; -0.23
10) Cc1ncc(NC(=O)c2cc(C(C)(C)O)ccn2)cc1-c1cnc(N2CC(C)(O)C2)c(C#N)c1 [Example 235]; 0.76
11) Cc1ncc(NC(=O)c2cnnc(C(F)(F)F)c2)cc1-c1cnc(N2CC(C)(O)C2)c(C#N)c1 [Example 181]; 1.23
12) Cc1ncc(NC(=O)c2ccnc(C(C)(C)C#N)c2)cc1-c1cnc(N2CC(C)(O)C2)c(C#N)c1 [Example 30]; 0.57
13) Cc1ncc(NC(=O)c2ccnc(C3(C#N)CC3)c2)cc1-c1cnc(N2CCOCC2)c(C#N)c1 [Example 146]; -0.58
14) Cc1ccc(NC(=O)c2cccc(S(C)(=O)=O)c2)cc1-c1cnc(C2CCOCC2)c(C#N)c1 [Example 139]; -0.42
15) Cc1ncc(NC(=O)c2cc(C(F)(F)F)ccn2)cc1-c1cnc(NC2CCOCC2)c(C#N)c1 [Example 227]; -0.10

---

STUDY SYSTEM: b-Raf (V600E) (Homo sapiens, UniProt P15056, V600E)
TEST: In vitro Raf activity determination (Alpha Screen, biotinylated kinase-dead MEK1 substrate), B-Raf
EXPERIMENTAL SETUP: b-Raf (V600E) approximately 4 pM; ATP 10 μM; pre-incubation 60 minutes; reaction 3 hours at room temperature
From the text: Full length MEK1 with an inactivating K97R ATP binding site mutation is utilized as a RAF substrate. The MEK1 cDNA was subcloned with an N-terminal (his)6 tag into a vector for E. Coli expression. The MEK1 substrate was purified from E. Coli lysate by nickel affinity chromatography followed by anion exchange. The final MEK1 preparation was biotinylated (Pierce EZ-Link Sulfo-NHS-LC-Biotin) and concentrated. […]
The entries below come with measured log10 of IC50 values attached.
REPORTED ENDPOINT: log10 of IC50 (log10 of the value in nM)

1. Cc1ccc(NC(=O)c2cc(C(C)(C)O)ccn2)cc1-c1cnc(N2CC(C)(O)C2)c(C#N)c1; 0.76
2. Cc1ccc(NC(=O)c2ccnc(C(C)(C)O)c2)cc1-c1cnc(N2CC(C)(O)C2)c(C#N)c1; 0.91
3. Cc1ncc(NC(=O)c2ccnc(C(C)(C)C#N)c2)cc1-c1cnc(N2CC(C)(O)C2)c(C#N)c1; 1.46
4. COc1ncc(-c2cc(NC(=O)c3ccnc(C(C)(C)C#N)c3)ccc2C)cc1C#N; 0.44
5. Cc1ccc(NC(=O)c2ccnc(C(C)(C)C#N)c2)cc1-c1cnc(NC2CCOCC2)c(C#N)c1; 0.03
6. Cc1ccc(NC(=O)c2cnnc(C(C)(C)C#N)c2)cc1-c1cnc(N2CCNCC2)c(C#N)c1; 0.49
7. Cc1ncc(NC(=O)c2cccc(S(C)(=O)=O)c2)cc1-c1cnc(N(C)C)c(C#N)c1; 0.73
8. Cc1ccc(NC(=O)c2cc(C(C)C)on2)cc1-c1cnc(N(C)C)c(C#N)c1; 0.07

---

STUDY SYSTEM: C-RAF (Homo sapiens, UniProt P04049, Y340E/Y341E)
Construct: His tag (implied by nickel chromatography) (cleaved yes); StrepII tag (cleaved yes); MEK1 substrate from E. coli
TEST: In vitro Raf activity determination (Alpha Screen, biotinylated kinase-dead MEK1 substrate), C-Raf
EXPERIMENTAL SETUP: c-Raf approximately 4 nM; ATP 1 μM; pre-incubation 60 minutes; reaction 1 hour at room temperature
pIC50: −log10 of the molar value.
Parameter: pIC50. Scope: all listed entries.
REPORTED ENDPOINT: pIC50

1. CCn1cc(C(=O)Nc2cnc(C)c(-c3cnc(N4CCOCC4)c(C#N)c3)c2)cc(C(F)(F)F)c1=O; 9.01
2. Cc1ncc(NC(=O)c2ccnc(C(F)(F)F)c2)cc1-c1cnc(-c2ccn(C)c(=O)c2)c(C#N)c1; 9.18
3. Cc1ncc(NC(=O)c2ccnc(C(F)(F)F)c2)cc1-c1cnc(N2CC(C)(O)C2)c(C#N)c1; 8.88
4. Cc1ncc(NC(=O)c2cc(C(C)(C)N)cc(C(F)(F)F)c2)cc1-c1cnc(N2CC(C)(O)C2)c(C#N)c1; 8.30
5. Cc1ccc(NC(=O)c2cc(C(F)(F)F)ccn2)cc1-c1cnc(N2CC(C)(O)C2)c(C#N)c1; 9.31
6. Cc1ncc(NC(=O)c2ccnc(C(C)(C)C#N)c2)cc1-c1cnc(NC2CCOC2)c(C#N)c1 (stereo in doubt) [Example 78a]; 8.50
7. Cc1ncc(NC(=O)c2ccnc(C(F)(F)F)c2)cc1-c1cnc(N2CCOCC2)c(C#N)c1; 9.65
8. Cc1ccc(NC(=O)c2ccnc(C(C)(C)O)c2)cc1-c1cnc(N2CCOCC2)c(C#N)c1; 9.45
9. Cc1ncc(NC(=O)c2ccnc(C(C)(C)C#N)c2)cc1-c1cnc(N2CCOC[C@@H]2C)c(C#N)c1; 8.94
10. CCn1cc(C(=O)Nc2ccc(C)c(-c3cnc(N4CCNCC4)c(C#N)c3)c2)cc(C(F)(F)F)c1=O; 9.28
11. Cc1ccc(NC(=O)c2cnnc(C(F)(F)F)c2)cc1-c1cnc(N2CCNCC2)c(C#N)c1; 9.07
12. CCn1cc(C(=O)Nc2ccc(C)c(-c3cnc(N(C)C)c(C#N)c3)c2)cc(C(F)(F)F)c1=O; 9.40
13. COCCNc1ncc(-c2cc(NC(=O)c3cnnc(C(C)(C)C#N)c3)ccc2C)cc1C#N; 9.35
14. Cc1cc(CC(=O)Nc2ccc(C)c(-c3cnc(N(C)C)c(C#N)c3)c2)on1; 8.87
15. Cc1ncc(NC(=O)c2ccnc(C3CC3)c2)cc1-c1cnc(N2CC(C)(O)C2)c(C#N)c1; 8.76
